- Measurement protocol: qHTS assay to test for compound auto fluorescence at 590 nm (red) in HEK293 cells (AID 720679); note: % is set by controls: 0 for no effect and ±100 for the full control effect
- Assay context: red autofluorescence 540/590 nm; series mostly up to 91.3 µM
Calls of active or inactive are those of the source. Calls come from the whole dose curve; as a rule, active = well fitted curve in the direction sought with a large enough effect in the repeat runs; inconclusive = weak or mixed curves; inactive = flat fitted curve, though single readings scatter.
Quantity name: fluorescence, % of fluorescent control

// known answers, use as guide
{"columns": ["Molecule", "fluorescence, % of fluorescent control"],
 "data": [
  ["CCC(C)(C)C(=O)O", "inactive"],
  ["COc1cc(NC(C)CCCN)c2ncccc2c1 (stereo not drawn)", "-0.0138% [at 18.6 µM] (inactive)"],
  ["O=C1OC[C@H](Cc2cccc(O)c2)[C@H]1Cc1cccc(O)c1", "inactive"],
  ["Cc1ccc2c(c1)CCCN2", "inactive"],
  ["C=CCOC(=O)COCCC(C)C", "inactive"],
  ["Nc1c(Cl)cc(Cl)cc1[N+](=O)[O-]", "inactive"],
  ["BrC(Br)C(Br)Br", "inactive"]
]}

Now consider the entry below.
Q: So what does the record say about fluorescence, % of fluorescent control for `O=C1CC[C@@H](C(=O)O)N1` ?
Ans: inactive

====

- Measurement protocol: qHTS assay to identify small molecule agonists of the farnesoid-X-receptor (FXR) signaling pathway - cell viability counter screen (AID 743218); note: % is set by controls: 0 for no effect and ±100 for the full control effect; nearly all actives have a fitted effect of over 45% in size
- Assay context: FXR-bla HEK293T viability, CellTiter-Glo luminescence, 16 h; series mostly up to 62.6 µM
Records with an inconclusive call do not appear. Activity calls are given as the source filed them. Calls follow the shape of the dose curve; as a rule, active = well fitted cell-killing curve with a large enough effect in the repeat runs; inconclusive = weak or mixed curves, or effect the other way; inactive = no such curve, though single readings can be large or run the other way.
Quantity name: outcome

{"columns": ["Smiles text", "Obs value"],
 "data": [
  ["COc1ccc(-c2cc(=S)ss2)cc1", "inactive"],
  ["COc1ccc(C)cc1", "inactive"],
  ["COc1ccc(C(=O)NCc2ccc(OCCN(C)C)cc2)cc1OC", "inactive"]
]}

====

- Measurement protocol: qHTS assay to test for compound auto fluorescence at 535 nm (green) in HepG2 cells (AID 720675); note: % is set by controls: 0 for no effect and ±100 for the full control effect
- Assay context: green autofluorescence 485/535 nm, 1 h; series mostly up to 91.3 µM
Active and inactive are the calls of the source. Calls follow the shape of the dose curve; as a rule, active = well fitted curve in the direction sought with a large enough effect in the repeat runs; inconclusive = weak or mixed curves; inactive = flat fitted curve, though single readings scatter.
Quantity name: fluorescence, % of fluorescein control

// known answers, use as guide
{"columns": ["Molecule", "fluorescence, % of fluorescein control"],
 "data": [
  ["OCC(CO)n1cnc(-c2ccc(F)cc2)c1-c1ccnc(Oc2ccccc2)n1", "inactive"],
  ["NC(=O)CCCCC(N)=O", "inactive"],
  ["O=C(O)CCC(=O)c1ccc(-c2ccccc2)cc1", "0.0165% [at 18.6 µM] (inactive)"],
  ["O=C1CC[C@@H](C(=O)O)N1", "inactive"],
  ["CCCCCCCCCCCCCOS(=O)(=O)O", "inactive"]
]}

Would you mind giving fluorescence, % of fluorescein control for every molecule in the list below?
1. CCN(Cc1cccc(S(=O)(=O)O)c1)c1ccc(C(=C2C=CC(=[N+](CC)Cc3cccc(S(=O)(=O)O)c3)C=C2)c2ccc(O)cc2S(=O)(=O)[O-])cc1
2. COc1ccc(C)cc1
3. C=CCOC(=O)COCCC(C)C
4. Cc1ccc(S(=O)(=O)NC(=O)NC2CCCCC2)cc1
5. CC(C(=O)O)c1ccc(C(=O)c2cccs2)cc1 (stereo not drawn)
6. CCCCCCCC/C=C\CCCCCCCC(=O)OCCO

Ans:
1: inactive; 2: inactive; 3: inactive; 4: inactive; 5: -0.0382% [at 18.6 µM] (inactive); 6: inactive

Would you mind giving fluorescence, % of fluorescein control for every molecule in the list below?
1. CCCCCCCCCCCCCCN(C)C
2. Nc1ccc(S(=O)(=O)NCc2ccccc2)cc1

Ans:
1. 0.0291% [at 18.6 µM] (inactive)
2. inactive

====

- Measurement protocol: qHTS assay for small molecule disruptors of the mitochondrial membrane potential (AID 720635)
- Assay context: HepG2 mitochondrial membrane potential, Mito-MPS dye ratio; series mostly up to 83.2 µM
- Description: U.S. Tox21 Program National Center for Advancing Translational Sciences [NCATS] NIH Chemical Genomics Center [NCGC] U.S. Environmental Protection Agency [EPA] National Institutes of Environmental Health Sciences [NIEHS] National Toxicology Program [NTP] U.S. Food and Drug Administration [FDA] […] The dye accumulates in the mitochondria of healthy cells as aggregates, with red fluorescence. […]
Inconclusive results are not listed. Active and inactive are the calls of the source. Calls come from the whole dose curve; as a rule, active = well fitted inhibition curve with a large enough effect in the signal ratio in the repeat runs; inconclusive = weak or mixed curves, or effect the other way; inactive = flat fitted curve, though single readings scatter; the % refers to the signal ratio.
Classes to choose from: active, inactive

Q: Which result was noted for this compound in the test: CC(O)Cn1cnc2c1c(=O)n(C)c(=O)n2C (stereo not drawn)
Ans: inactive

Q: Then what about the compound `C=C(C)c1ccccc1` ?
Ans: inactive

Q: Then what about the compound `CCCOC(=O)c1c(Cl)c(Cl)c(Cl)c(Cl)c1C(=O)OCCC` ?
Ans: active

====

- Measurement protocol: A CellTox Green Cytotoxicity Assay to monitor cytotoxicity in HepG2 cells - 40 hour (AID 1224879); note: % is set by controls: 0 for no effect and ±100 for the full control effect; nearly all actives have a fitted effect of over 40% in size
- Assay context: CellTox Green fluorescence; series mostly up to 76.8 µM
Records with an inconclusive call do not appear. Activity calls are given as the source filed them. Calls come from the whole dose curve; as a rule, active = well fitted activation curve with a large enough effect in the repeat runs; inconclusive = weak or mixed curves; inactive = flat fitted curve, though single readings scatter.
Classes to choose from: active, inactive

Q: Which result was noted for this molecule in the test: `CCC(=O)OCc1ccc(OC)cc1`
Ans: inactive

Q: Then what about the molecule `O=S(=O)(Cl)c1c(Cl)cccc1Cl` ?
Ans: inactive

Q: Then what about the molecule `CCSC(=O)N(CC)CC` ?
Ans: inactive

Q: Then what about the molecule `Cc1ccc(Cl)cc1N` ?
Ans: inactive

Q: Then what about the molecule `O=C(C(=O)c1ccco1)c1ccco1` ?
Ans: inactive

Q: Then what about the molecule `C/C(C=O)=C\c1ccccc1` ?
Ans: inactive

====

- Measurement protocol: qHTS assay to identify small molecule antagonists of the retinoic acid receptor (RAR) signaling pathway (AID 1159552; note: nearly all actives have a fitted effect of over 50% in size)
- Assay context: C3RL4 RARE luciferase reporter, retinol-stimulated, 6 h; series mostly up to 92.4 µM
Inconclusive results are not listed. The source made the active and inactive calls. Calls come from the whole dose curve; as a rule, active = well fitted inhibition curve with a large enough effect in the repeat runs; inconclusive = weak or mixed curves, or effect the other way; inactive = no such curve, though single readings can be large or run the other way.
Classes to choose from: active, inactive

Recorded results for 5 compounds are shown here.
{"columns": ["Compound", "Class"],
 "data": [
  ["CCC(CO)(CO)CO", "inactive"],
  ["Cc1ccc(NC(=O)N(C)C)cc1NC(=O)N(C)C", "inactive"],
  ["CC(=O)c1ccc[nH]1", "inactive"],
  ["O=S(=O)(Cl)c1c(Cl)cccc1Cl", "inactive"],
  ["CCO[Si](C)(CCCOCC1CO1)OCC (stereo not drawn)", "inactive"]
]}

Q: Which result was noted for this compound in the test: CCCCCCC(O)CCCCCCCCCCC(=O)OC (stereo not drawn)
Ans: inactive

Q: Then what about the compound `CCc1ccc(C)cc1` ?
Ans: inactive

Q: Then what about the compound CNC1CCCN(c2c(F)cc3c(=O)c(C(=O)O)cn(C4CC4)c3c2OC)C1 (stereo not drawn) ?
Ans: inactive

Q: Then what about the compound `CCCCCCCC(=O)OCCCCCC` ?
Ans: inactive

Q: Then what about the compound `O=c1[nH]c2cc(C(F)(F)F)c(N3CCOCC3)cc2n(CP(=O)(O)O)c1=O` ?
Ans: inactive

Q: Then what about the compound `CC(=O)OCC1=C(C(=O)O)N2C(=O)[C@@H](NC(=O)CSc3ccncc3)[C@H]2SC1` ?
Ans: inactive

Q: Then what about the compound `CN(C)CC/C=C1\c2ccccc2Sc2ccc(Cl)cc21` ?
Ans: active

Q: Then what about the compound `CCCOC(=O)c1c(Cl)c(Cl)c(Cl)c(Cl)c1C(=O)OCCC` ?
Ans: inactive

====

- Measurement protocol: qHTS assay to identify small molecule agonists of the AP-1 signaling pathway - cell viability counter screen (AID 1159525); note: nearly all actives have a fitted effect of over 55% in size
- Assay context: ME-180 (cervical carcinoma) AP-1-bla cells viability, ATP luminescence, 5 h; series mostly up to 76.8 µM
Records with an inconclusive call do not appear. Calls of active or inactive are those of the source. The call rests on the fitted dose curve.
Quantity name: viability change, negative = cytotoxic

{"columns": ["Molecule", "viability change, negative = cytotoxic"],
 "data": [
  ["O=C(CCS)OCC(COC(=O)CCS)(COC(=O)CCS)COC(=O)CCS", "inactive"],
  ["CC1CCc2nccnc21 (stereo not given)", "inactive"],
  ["COC1CCC=CO1 (stereo not given)", "inactive"],
  ["CC1CCCC(=O)C1=O (stereo not given)", "inactive"]
]}

Would you mind giving viability change, negative = cytotoxic for every molecule in the list below?
1. CNC1CCCN(c2c(F)cc3c(=O)c(C(=O)O)cn(C4CC4)c3c2OC)C1 (stereo not given)
2. CCCCCCCCCCCC(=O)OCC(O)CO (stereo not given)

Ans:
inactive
inactive

====

- Measurement protocol: qHTS RealTime-Glo MT Cell Viability Assay in HEK293 cells - 16 hour (AID 1224872); note: top concentration of the series differs between compounds; % is set by controls: 0 for no effect and ±100 for the full control effect; nearly all actives have a fitted effect of over 50% in size
- Assay context: RealTime-Glo luminescence; series mostly up to 76.8 µM
Inconclusive results are not listed. Active and inactive are the calls of the source. The call rests on the fitted dose curve; in most records, active means well fitted cell-killing curve with a large enough effect in the repeat runs; inconclusive means weak or mixed curves, or effect the other way; inactive means flat fitted curve, though single readings scatter.
Classes to choose from: active, inactive

{"columns": ["Compound", "Class"],
 "data": [
  ["CCCOC(=O)c1c(Cl)c(Cl)c(Cl)c(Cl)c1C(=O)OCCC", "inactive"]
]}

Q: Which result was noted for this compound in the test: `COC(C)(C)OC`
Ans: inactive

Q: Then what about the compound `Cc1c[nH]c2ccccc12` ?
Ans: inactive
